ASSAY_NAME: Intravenous injection galactose GSP test (blood galactose after intravenous galactose)
Format: in vivo
SETTINGS: human, plasma, 0.5 g/kg, Severe impairment of liver function (N = 40), average ± standard error
ATTRIBUTE_MEASURED: concentration at 60 min (µg/mL)

1. O=C[C@H](O)[C@@H](O)[C@@H](O)[C@H](O)CO [galactose] = 667

---

ASSAY_NAME: Intravenous injection galactose GSP test (blood galactose after intravenous galactose)
Format: in vivo
SETTINGS: human, plasma, 0.5 g/kg, Normal liver function (N = 56), average ± standard error
ATTRIBUTE_MEASURED: concentration at 60 min

1. O=C[C@H](O)[C@@H](O)[C@@H](O)[C@H](O)CO = 174 µg/mL
